These data points were gathered from ChEMBL document CHEMBL1201862.

System: SK-MEL-5
Assay: NCI tumour cell line growth inhibition, 48 h
The source made the active and inactive calls. Rule as the data show it: active = GI50 up to about 1.1 µM and inactive = higher.
Give your call using only these classes: 1 (yes) for active, 0 (no) for inactive

input: Assay outcome for O=C1NC2CCCCC2NC1=C(C(=O)c1ccccc1)C(=O)c1ccccc1 (stereo not drawn) : what was it?
output: 0 (no)

input: Assay outcome for C=CC[N+](CCO)(CCO)CCCCCCCCCCCCCCCCCC : what was it?
output: 0 (no)

input: Assay outcome for O=C(CCC=C(S(=O)(=O)c1ccccc1)S(=O)(=O)c1ccccc1)c1ccccc1 : what was it?
output: 0 (no)

input: Assay outcome for CN(C)c1ccc(/C=C(\NC(=O)c2ccccc2)C(=O)Nc2ccccc2C(=O)NCc2ccccc2)cc1 : what was it?
output: 0 (no)

input: Assay outcome for COc1ccc2[nH]cc(C=C3C(=O)NC(=S)NC3=O)c2c1 : what was it?
output: 0 (no)

input: Assay outcome for C=C1C[C@]23CCC4C(C)(C)C(=O)CC[C@]4(C)C2C[C@H]1C(O)C3=O (stereo partly drawn) : what was it?
output: 0 (no)

input: Assay outcome for CS(C)(=O)=N/C=C\C(=O)C(Cl)(Cl)Cl : what was it?
output: 0 (no)

input: Assay outcome for COc1ccc(C2CC(c3ccc4ccccc4c3O)=NN2)cc1OC (stereo not drawn) : what was it?
output: 0 (no)

input: Assay outcome for Cc1ccc(Nc2nc(C)c(C(=O)CC(=O)C(=O)Nc3ccc(Cl)cc3)s2)cc1 : what was it?
output: 0 (no)

input: Assay outcome for CCNC1=C(NC(=O)c2ccc(OC)cc2)C(=O)c2ccccc2C1=O : what was it?
output: 0 (no)

input: Assay outcome for CN(C)CCn1c2ccccc2c2nc3cc4ccccc4cc3nc21 : what was it?
output: 0 (no)

input: Assay outcome for Cc1ccc(S(=O)(=O)NCCSCCNS(=O)(=O)c2ccc(C)cc2)cc1 : what was it?
output: 0 (no)

input: Assay outcome for COc1ccc(N2C(=O)c3c4c(c5c([nH]c6ncccc65)c3C2=O)CCC(C(C)(C)C)C4)cc1 (stereo not drawn) : what was it?
output: 0 (no)

input: Assay outcome for C=C1C(C(=O)OC)[C@H]1C(=O)OC (stereo partly drawn) : what was it?
output: 0 (no)

input: Assay outcome for OCC1NC(COC2OC(CO)C(O)C(O)C2O)C(O)C(O)C1O (stereo not drawn) : what was it?
output: 0 (no)

input: Assay outcome for CC(=O)N1OC(C)CC1Nc1ccc(Br)cc1 (stereo not drawn) : what was it?
output: 0 (no)

input: Assay outcome for Nc1c2c(=O)[nH]c(=O)c2c(N)c2c(=O)c3ccccc3c(=O)c12 : what was it?
output: 1 (yes)

input: Assay outcome for CN(C(=O)C1CC1)C1C2CN3CCC(O2)C13 (stereo not drawn) : what was it?
output: 0 (no)
